Origin of measurements: patent US20240270826A1

target: Human SARS-CoV-2_Wuhan S (SmT1) (SARS-CoV-2 (Wuhan), UniProt P0DTC2 14-1208); assay: flow cytometry SVNA, VHH vs biotin-S binding to Vero E6 ACE2
Recorded IC50 values for a group of binders are listed next.
The reply should consist of the numeric value with the unit placed after it.

// known answers, use as guide
### Prompt What does the record list as IC50 for NRCoV2-18 VHH (VHH) VHH: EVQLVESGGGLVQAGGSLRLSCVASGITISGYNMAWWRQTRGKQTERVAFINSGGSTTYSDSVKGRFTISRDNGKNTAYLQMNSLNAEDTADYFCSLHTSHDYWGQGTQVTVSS ?
### Response 8.9 nM

### Prompt What does the record list as IC50 for NRCoV2-02 VHH (VHH) VHH: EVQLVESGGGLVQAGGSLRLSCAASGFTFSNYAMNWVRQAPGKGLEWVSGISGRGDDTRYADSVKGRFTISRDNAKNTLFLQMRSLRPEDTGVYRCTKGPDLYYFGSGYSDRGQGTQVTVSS ?
### Response 5.1 nM

### Prompt What does the record list as IC50 for NRCoV2-05 VHH (VHH) VHH: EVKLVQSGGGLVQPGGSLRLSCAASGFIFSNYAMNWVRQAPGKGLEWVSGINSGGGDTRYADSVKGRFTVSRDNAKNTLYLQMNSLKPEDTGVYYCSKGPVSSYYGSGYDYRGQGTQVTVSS ?
### Response 9.5 nM

Others:
### Prompt What does the record list as IC50 for NRCoV2-1d VHH (VHH) VHH: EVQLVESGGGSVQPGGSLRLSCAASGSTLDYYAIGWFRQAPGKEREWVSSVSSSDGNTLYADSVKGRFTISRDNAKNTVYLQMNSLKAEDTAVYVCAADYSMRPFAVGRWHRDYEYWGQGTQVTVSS ?
### Response 8.6 nM

### Prompt What does the record list as IC50 for NRCoV2-10 VHH (VHH) VHH: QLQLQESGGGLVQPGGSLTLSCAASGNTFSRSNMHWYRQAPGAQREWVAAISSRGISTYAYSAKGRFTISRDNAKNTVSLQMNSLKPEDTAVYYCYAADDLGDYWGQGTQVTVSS ?
### Response 16.1 nM
